Documented Kd across a set of molecules
target: HIV-1 NefNL4-3 (Human immunodeficiency virus type 1 group M subtype B, UniProt P03406, A33V/T15A/T51N/V11I); test: Surface plasmon resonance binding to recombinant full-length Nef (NL4-3); settings: KD, M, Table 4; SPR fit 2-step induced fit, KD = koff/kon × koff2/(koff2 + kon2)
Please give a number only; it is taken to be in nM.

# count of solved cases: 6
smiles_string	Kd (nM)
Oc1c(CCc2ccc(F)cc2)c(C2CC2)nn1-c1nc2cccnc2[nH]1	4060
Oc1c(CCc2ccc(F)cc2)c(C2CCN(Cc3ccccn3)CC2)nn1-c1nc2ccccc2[nH]1	182
CC(C)(C)OC(=O)N1CCC(CCc2c(-c3cccc(S(C)(=O)=O)c3)nn(-c3nc4ccccc4[nH]3)c2O)CC1	4560
Cn1ccc(-c2nn(-c3nc4ccccc4[nH]3)c(O)c2CCc2ccc(F)cc2)cc1=O	1.51
Oc1c(CC2CCOCC2)c(-c2ccc(F)cc2F)nn1-c1nc2ccccc2[nH]1	0.0307
Oc1c(CCc2ccc(F)cc2)c(-c2ccccc2)nn1-c1nc2cc(Cl)ccc2[nH]1	636

Prompt: May I ask what Kd has been recorded for O=S(=O)(c1cccnc1)N1CCC(c2nn(-c3nc4ccccc4[nH]3)c(O)c2CCc2ccc(F)cc2)CC1 ?
Completion: 0.00143

Prompt: May I ask what Kd has been recorded for Oc1c(CC2CCOCC2)c(CCC2CCOCC2)nn1-c1nc2ccccc2[nH]1 ?
Completion: 10900

* * *

Documented Percent Viability @ 1 μM (TZM-bl cells) across a set of compounds
system: TZM-bl cell line; format: cell-based; details: human, 1 μM
Please state the number and follow it with the unit.

Prompt: May I ask what Percent Viability @ 1 μM (TZM-bl cells) has been recorded for CC(=O)N1CCC(Cc2nn(-c3nc4ccccc4[nH]3)c(O)c2CCc2ccc(F)cc2)CC1 [Compound I-772] ?
Completion: 100.1%

Prompt: May I ask what Percent Viability @ 1 μM (TZM-bl cells) has been recorded for CC(C)OC(=O)N1CCC(c2nn(-c3nc4cc(Cl)ccc4[nH]3)c(O)c2CCC2CCOCC2)CC1 [Compound I-701] ?
Completion: 98.7%

Prompt: May I ask what Percent Viability @ 1 μM (TZM-bl cells) has been recorded for Oc1c(CC2CCOCC2)c(-c2ccc(F)cc2)nn1-c1nc2ccccc2[nH]1 [Compound I-151] ?
Completion: 83.0%

Prompt: May I ask what Percent Viability @ 1 μM (TZM-bl cells) has been recorded for CS(=O)(=O)N1CCC(CCc2c(-c3ccc(C(F)(F)F)cn3)nn(-c3nc4ccccc4[nH]3)c2O)CC1 [Compound I-716] ?
Completion: 97.1%

* * *

target: HIV-1 NefNL4-3 (Human immunodeficiency virus type 1 group M subtype B, UniProt P03406, A33V/T15A/T51N/V11I); experiment: Surface plasmon resonance binding to recombinant full-length Nef (NL4-3)
quantity_kind: pKd
Notebook: values listed as pKd are -log10 of the concentration (mol/L).

molecule	value
CC(C)OC(=O)N1CCC(c2nn(-c3nc4ccccc4[nH]3)c(O)c2CCC2CCOCC2)CC1 [Compound I-722]	5.65
Oc1c(CCc2ccc(F)cc2)c(-c2cncc(Br)c2)nn1-c1nc2ccccc2[nH]1 [Compound I-118]	7.02
Oc1c(CCc2ccc(F)cc2)c(C2CC2)nn1-c1nc2cccnc2[nH]1 [Compound I-308]	6.03
COCCc1nn(-c2nc3ccccc3[nH]2)c(O)c1CCc1ccc(F)cc1 [Compound I-125]	5.51
O=C(c1cnccn1)N1CCC(c2nn(-c3nc4ccccc4[nH]3)c(O)c2CCc2ccc(F)cc2)CC1 [Compound I-728]	6.85
Oc1c(CCc2ccc(F)cc2)c(-c2ccc(C(F)(F)F)nc2)nn1-c1nc2ccccc2[nH]1 [Compound I-135]	6.20
O=C(C1CCOC1)N1CCC(c2nn(-c3nc4ccccc4[nH]3)c(O)c2CCc2ccc(F)cc2)CC1 (centres unmarked) [Compound I-736]	7.00

Now, please, on to the next molecule.
Prompt: May I ask what pKd has been recorded for Cc1ccc(-c2nn(-c3nc4ccccc4[nH]3)c(O)c2CCc2ccc(F)cc2)cn1 [Compound I-140] ?
Completion: 6.04
